# Tested on: Streptococcus sp. 'group A'
# Test Description: Streptococcus pyogenes SK(-)GAS viability under kanamycin – luminescence, BacTiterGlo, confirmation, counter-screen for streptokinase expression inhibitor project, dose response (AID 1900)
# Format: functional, organism-based
Calls of active or inactive are those of the source.
Give measured EC50 for each item. Keep answers brief.

Example entries and their recorded answers appear below.
# Compound, Measured On, EC50
data = [
    ("c1ccc(N2N=C(c3cccs3)CC2c2ccco2)cc1 (centres undefined)", "Streptococcus sp. 'group A'", "> 150 µM (not active)"),
    ("C=CCc1cccc(/C=N/NC(=O)C(=O)Nc2ccc(C)cc2)c1O", "Streptococcus sp. 'group A'", "> 150 µM (not active)"),
]

Hey, can you go through the list below and give me EC50 for every item?
1. O=C(CSc1nc2ccccc2c(=O)n1NC(=O)c1ccccc1)c1ccc(Cl)cc1
2. CCCCn1c(=O)c(C(=O)NCCc2ccccc2)c(O)c2ccccc21
3. CCc1nc2c(cnn2-c2ccc(Cl)cc2)c(=O)n1-c1ccc(OC)cc1
4. Cc1cc(C)c(OCC(=O)Nc2ccccc2N2CCCCC2)c(C)c1
5. CCN(CC)C(=S)Sc1c(O)nc2ccc(Cl)cc2c1-c1ccccc1
6. O=C(O)c1ccc(NC(=S)NC(=O)c2cccc(COc3ccccc3)c2)cc1

1. 7.26 µM (active)
2. 26.4 µM (active)
3. 28.3 µM (active)
4. 25.7 µM (active)
5. 0.831 µM (active)
6. 18.6 µM (active)

For Fc1ccc(-c2csc3ncnc(N4CCc5ccccc5C4)c23)cc1 , what is its reported EC50?
9.67 µM (active)

###

# Test Description: NIH3T3 cell viability loss – ATP luminescence, mouse fibroblasts, counter-screen, dose response (AID 2010);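 also: cells exposed to compound for about 90 hours before reading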
# Type: functional, cell-based
Calls of active or inactive are those of the source.
Measured Endpoint: EC50

# Compound, Data Value
measured = [
    ("CCCCN(CC)S(=O)(=O)c1ccc(C(=O)N(CCCN(C)C)c2nc3cc(C)cc(C)c3s2)cc1", "9.54 µM (active)"),
    ("COc1ccccc1C1=Nc2cccc3cccc(c23)N1", "> 30 µM (not active)"),
    ("O=C(/C=C/c1cccc(F)c1)NC1CCN(Cc2ccccc2)CC1", "> 60 µM (not active)"),
    ("Cc1ccc(OCCCCNC2CCCC(C)C2C)c(C)c1 (stereo unspecified)", "> 60 µM (not active)"),
    ("COc1cccc(OCCNC(=O)c2cc([N+](=O)[O-])cc([N+](=O)[O-])c2)c1", "> 60 µM (not active)"),
]

Please look at the items below and tell me EC50 for each one, in order.
1. CN(C)CCCN(C(=O)c1ccco1)c1nc2c(F)cc(F)cc2s1
2. CCOc1ccc(CN2CCN(Cc3[nH]c4ccc(OC)cc4c3C)CC2CCO)cc1 (stereo unspecified)
3. COc1ccccc1CNc1ccc(N2CCCCC2)cc1
4. COc1cccc(/C=N/NC(=O)c2c(C)nc3ccc(Br)cn23)c1O
5. Cc1[nH]c2ccc(F)cc2c1CCN(Cc1cccnc1)C(S)=Nc1cccc(F)c1
6. CCOC(=O)c1c(NC(=O)CSc2ncccn2)sc2c1CCN(Cc1ccccc1)C2

> 60 µM (not active)
> 60 µM (not active)
> 60 µM (not active)
> 60 µM (inconclusive)
> 30 µM (not active)
> 60 µM (not active)

###

Consider the following molecules; for each one, report its IC50.
# Measured On: Leucine aminopeptidase (Plasmodium falciparum 3D7)
# Sequence (Q8IL11 whole entry): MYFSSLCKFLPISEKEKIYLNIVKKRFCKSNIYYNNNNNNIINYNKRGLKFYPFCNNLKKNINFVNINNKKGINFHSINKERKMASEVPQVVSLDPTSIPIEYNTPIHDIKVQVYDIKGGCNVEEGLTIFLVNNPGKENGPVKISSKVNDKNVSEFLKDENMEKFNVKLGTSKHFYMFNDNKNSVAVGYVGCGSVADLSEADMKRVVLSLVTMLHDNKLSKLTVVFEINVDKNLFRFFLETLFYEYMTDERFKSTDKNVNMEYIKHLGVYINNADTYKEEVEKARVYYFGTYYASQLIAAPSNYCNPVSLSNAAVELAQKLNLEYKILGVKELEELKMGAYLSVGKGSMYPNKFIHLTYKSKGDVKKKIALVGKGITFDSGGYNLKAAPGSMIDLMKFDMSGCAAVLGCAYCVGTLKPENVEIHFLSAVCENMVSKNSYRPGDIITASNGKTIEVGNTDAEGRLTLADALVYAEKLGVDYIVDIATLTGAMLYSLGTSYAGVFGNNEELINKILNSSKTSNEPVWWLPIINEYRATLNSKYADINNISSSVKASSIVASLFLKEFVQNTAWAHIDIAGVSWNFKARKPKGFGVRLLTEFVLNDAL
# Test Description: P. falciparum M17LAP inhibitors, primary screen, biochemical, fluorogenic H-Leu-NHMec substrate, 1536-well (AID 1619)
# Format: functional
Active and inactive are the calls of the source.

These recorded examples may help you get a feel for the data.
# Molecule, Measured On, IC50
records = [
    ("OC1=C2C(=Nc3nc(S)nc(O)c3C2c2ccc(Br)cc2)CCC1 (stereo unspecified)", "Leucine aminopeptidase (Plasmodium falciparum 3D7)", "16.7 µM (active)"),
    ("CCOc1ccc(NC(=O)C2CC(C)=C(C)CC2C(=O)O)cc1 (stereo unspecified)", "Leucine aminopeptidase (Plasmodium falciparum 3D7)", "21.3 µM (active)"),
    ("COc1ccc(NC(=O)CN2C(=O)C(C)SC(C)C2=O)cc1 (stereo unspecified)", "Leucine aminopeptidase (Plasmodium falciparum 3D7)", "12.2 µM (active)"),
    ("Cc1ccc(C)c(N2C(=N)S/C(=C\\c3ccc(-c4ccccc4C(=O)O)o3)C2=O)c1", "Leucine aminopeptidase (Plasmodium falciparum 3D7)", "32.6 µM (active)"),
    ("O=C(Nc1ccc(C(=O)O)cc1)Nc1cccc([N+](=O)[O-])c1", "Leucine aminopeptidase (Plasmodium falciparum 3D7)", "16.1 µM (active)"),
]

Hey, quick one: what's IC50 for each of these?
1. COc1ccccc1NC(=O)CSc1nc[nH]n1
2. O=C(NCCc1c[nH]c2ccccc12)OCCSS(=O)(=O)O
3. CC/C(NNC(=O)c1ccccc1O)=C1/C(=O)NC(=O)N(Cc2ccccc2)C1=O
4. C=CCn1c(SCC(=O)c2ccc(NS(=O)(=O)c3ccccc3)cc2)nnc1-c1cccs1
5. Cc1ccc(S(=O)(=O)NC(=O)CSc2nc3ccccc3s2)cc1
6. O=C(CSc1nc[nH]n1)N1N=C2/C(=C/c3ccco3)CCCC2C1c1ccco1 (stereo unspecified)

1. 36.8 µM (active)
2. 21.8 µM (active)
3. 47.3 µM (active)
4. 14.7 µM (active)
5. 7.77 µM (active)
6. 2.11 µM (active)

###

Provide the reported IC50 of each item.
# Measured On: Large T antigen (Simian virus 40, UniProt P03070)
# Sequence (P03070 whole entry): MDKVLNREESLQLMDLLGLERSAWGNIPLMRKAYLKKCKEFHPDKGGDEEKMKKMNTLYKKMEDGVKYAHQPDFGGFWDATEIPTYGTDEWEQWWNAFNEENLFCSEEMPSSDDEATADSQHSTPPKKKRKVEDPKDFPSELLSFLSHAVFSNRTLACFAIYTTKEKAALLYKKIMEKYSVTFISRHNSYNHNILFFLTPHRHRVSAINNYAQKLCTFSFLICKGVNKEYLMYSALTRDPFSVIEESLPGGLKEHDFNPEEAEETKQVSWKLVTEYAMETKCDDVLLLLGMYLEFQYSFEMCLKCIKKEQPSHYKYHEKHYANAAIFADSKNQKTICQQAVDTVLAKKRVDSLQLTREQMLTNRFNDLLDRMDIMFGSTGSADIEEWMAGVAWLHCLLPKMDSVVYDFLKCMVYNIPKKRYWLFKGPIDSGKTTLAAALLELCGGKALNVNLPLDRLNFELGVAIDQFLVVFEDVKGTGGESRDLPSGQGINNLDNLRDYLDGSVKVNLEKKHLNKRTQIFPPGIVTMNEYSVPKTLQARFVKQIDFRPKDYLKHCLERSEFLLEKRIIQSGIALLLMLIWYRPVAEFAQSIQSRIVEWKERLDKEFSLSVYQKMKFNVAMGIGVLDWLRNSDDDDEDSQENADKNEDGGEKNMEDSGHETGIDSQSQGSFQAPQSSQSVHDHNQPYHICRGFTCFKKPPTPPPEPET
# Assay type: functional, Betapolyomavirus macacae
Calls of active or inactive are those of the source.

Example cases with answers are listed next.
# Compound, IC50
records = [
    ("C=CCOc1c(CNc2ccc3[nH]c(O)nc3c2)cccc1OC", "96.9 µM (active)"),
    ("O=C1NC(=S)S/C1=C\\c1ccc(SCc2ccco2)o1", "6.01 µM (active)"),
    ("Cn1c(SCC(=O)N/N=C/c2ccc(O)c(O)c2)nc2ccccc21", "3.29 µM (active)"),
]

For each entry beneath this line, provide reported IC50.
1. CC(=O)Nc1sc(N/N=C\c2ccco2)nc1-c1cccs1
2. O=c1c2ccccc2sn1-c1cc(S(=O)(=O)N2CCOCC2)ccc1N1CCOCC1
3. OC1=C2C(=Nc3nc(S)nc(O)c3C2c2ccc(Br)cc2)CCC1 (stereo not drawn)

1: 50.8 µM (active); 2: 13.2 µM (active); 3: 48.1 µM (active)

Value sought for every listed compound: IC50.
1. O=C(NC(=S)Nc1ccc(O)cc1)c1ccccc1Cl
2. Nc1ccc(-c2sc(N)nc2-c2ccccc2)cc1

1. 6.97 µM (active)
2. 14.5 µM (active)

###

# Measured On: UniProtKB Q9QUQ5
# Sequence (Q9QUQ5 whole entry): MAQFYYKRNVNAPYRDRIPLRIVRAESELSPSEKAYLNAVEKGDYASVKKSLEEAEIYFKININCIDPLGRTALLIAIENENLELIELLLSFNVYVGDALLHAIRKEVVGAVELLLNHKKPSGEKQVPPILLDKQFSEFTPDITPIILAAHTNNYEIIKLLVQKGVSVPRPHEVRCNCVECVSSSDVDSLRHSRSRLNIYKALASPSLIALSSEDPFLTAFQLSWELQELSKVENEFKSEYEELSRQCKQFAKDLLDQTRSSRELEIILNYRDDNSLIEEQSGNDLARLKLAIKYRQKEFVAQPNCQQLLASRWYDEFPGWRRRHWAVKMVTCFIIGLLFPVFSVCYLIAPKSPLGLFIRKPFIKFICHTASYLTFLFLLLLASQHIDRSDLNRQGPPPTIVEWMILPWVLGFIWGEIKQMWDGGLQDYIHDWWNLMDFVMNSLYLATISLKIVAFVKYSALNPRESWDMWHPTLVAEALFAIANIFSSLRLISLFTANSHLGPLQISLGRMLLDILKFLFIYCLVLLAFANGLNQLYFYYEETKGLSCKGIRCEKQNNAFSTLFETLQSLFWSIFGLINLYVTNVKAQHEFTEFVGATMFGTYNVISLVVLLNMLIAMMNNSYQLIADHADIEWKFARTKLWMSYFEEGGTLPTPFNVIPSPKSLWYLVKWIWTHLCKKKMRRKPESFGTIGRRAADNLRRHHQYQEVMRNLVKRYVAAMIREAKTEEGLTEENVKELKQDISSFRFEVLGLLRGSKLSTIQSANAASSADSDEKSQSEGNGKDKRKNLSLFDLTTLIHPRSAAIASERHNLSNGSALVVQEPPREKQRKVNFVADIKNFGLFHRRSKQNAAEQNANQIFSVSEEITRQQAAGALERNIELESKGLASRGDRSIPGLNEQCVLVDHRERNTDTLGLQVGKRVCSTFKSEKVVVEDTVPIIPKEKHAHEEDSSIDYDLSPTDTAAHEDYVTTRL
# Test Description: calcium entry via TRPC4 opening agents – cell-based, HEK293 TRPC4/mu-opioid, Fluo-4 calcium, dose response (AID 434937)
# Format: functional
Activity calls are given as the source filed them.
Measured Endpoint: EC50

Before answering, review these 3 worked examples.
# Compound, EC50
data = [
    ("O=C(Nc1nnc(-c2cccs2)o1)c1cccc(C(F)(F)F)c1", "11.9 µM (active)"),
    ("CN(C)C(CNC(=O)Cc1cccc(C(F)(F)F)c1)c1ccccc1 (centres undefined)", "0.0947 µM (active)"),
    ("N=C(N)N/N=C/c1ccc(N(c2ccccc2)c2ccccc2)cc1", "9.44 µM (active)"),
]

Suppose we examine the compound COc1cc(/C=C/C(=O)c2ccc3c(c2)OCO3)cc(Cl)c1O ; what EC50 value has been reported?
5.96 µM (active)

###

Consider the following compounds; for each one, report its AC50.
# System: INS1
# Test Description: INS-1E survival protection against cytokine death – cell-based, luminescence, retest, dose response (AID 449756);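 also: cell death triggered by IL-1 beta plus TNF-alpha plus IFN-gamma mixture; protective hits raise ATP signal compared with cytokine alone wells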
# Assay type: functional
# Condition Parameters: Rattus norvegicus
Active and inactive are the calls of the source.

Dear colleague, could you please provide AC50 for the compounds listed below?
1. Cc1ccc([N+](=O)[O-])c(OCCN2CCCCCC2)c1
2. O=C(Oc1c(CN2CCOCC2)cc(Cl)c2cccnc12)c1ccccc1
3. CC(=O)CSc1ccc(-c2nc3ccccc3[nH]2)cn1
4. NS(=O)(=O)c1ccc(N=Nc2ccc(O)c3ncccc23)cc1
5. CCN(CC)c1ccc(/C=N/N(c2ccccc2)c2ccccc2)c(O)c1

4.9 µM (active)
4.16 µM (active)
5.24 µM (active)
3.45 µM (active)
5.2 µM (active)

###

# Measured On: Calpain-2 catalytic subunit (Sus scrofa, UniProt P43367)
# Sequence (P43367 whole entry): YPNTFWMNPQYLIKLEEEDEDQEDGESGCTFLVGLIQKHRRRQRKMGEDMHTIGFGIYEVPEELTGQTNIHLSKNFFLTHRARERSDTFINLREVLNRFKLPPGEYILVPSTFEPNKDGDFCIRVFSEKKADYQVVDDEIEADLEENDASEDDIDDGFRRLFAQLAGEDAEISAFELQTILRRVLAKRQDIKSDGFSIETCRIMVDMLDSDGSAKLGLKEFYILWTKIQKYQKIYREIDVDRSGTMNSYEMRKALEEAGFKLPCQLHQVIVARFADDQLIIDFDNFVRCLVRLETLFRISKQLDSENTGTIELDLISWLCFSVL
# Test Description: m-calpain protease blockers, concentration series – biochemical, fluorogenic peptide substrate, dose response (AID 1420)
# Type: functional
Can you tell me IC50 for the items I'm about to list?

# batch: return IC50 for each of the 5 molecules below
1. CCCCN(CC)S(=O)(=O)c1ccc(C(=O)N(CCCN(C)C)c2nc3cc(C)cc(C)c3s2)cc1
2. S=C(NCc1ccco1)N/N=C/c1ccc(Cl)cc1
3. CCCCC(CC)C(=O)Oc1ccc(O)c(C(C)(C)C)c1 (stereo not given)
4. CN=C(S)NNC(=O)c1ccccc1F
5. O=C(N/N=C\c1cccc(Br)c1)c1ccccc1-n1cccc1

1: 8.03 µM (not active); 2: 6.94 µM (not active); 3: 13.5 µM (not active); 4: 17.7 µM (not active); 5: > 50 µM (not active)
